# Assay name: Liver microsome metabolic stability (LMS) assay, human
# Test parameters: human, microsomes
Endpoint name: CLint scaled at 1 μM (mL/min/kg)
Answers are plain numbers, in mL/min/kg.

Give a short answer stating reported CLint scaled at 1 μM for O=C(O)Cc1ccccc1Nc1c(Cl)cccc1Cl .
185

====

# Test system: HCT116 parental (wild type) cells
# Assay name: HCT116 cell proliferation assay (CTG), parental cells
# Format: cell-based, human
# Test parameters: 6 days treatment, Cell Titer-Glo
# Procedure: Control samples were analyzed in parallel. On Day 0, 150 HCT116 parental or HCT116 homozygous MTAP knockout cells were seeded in 96-well plates in McCoy's 5A medium containing 10% fetal bovine serum and pen/strep. […] On Day 7, cell viability was measured using a CTG assay Kit (Cell Titer-Glo; Promega, catalog no.: G7573) in accordance with the manufacturer's instructions. Assays plates were read on a EnVision™ Multilabel Reader using the Ultra-Sensitive luminescence model. […]
So I've got a bunch of compounds here, and I need their pIC50 values.
Answers are plain numbers, as −log10 of the molar value.

Guide cases for pIC50, answers given:
{"Compound": "Cc1ncn2c1c(N)nc1ccc(C(=O)N(Cc3ccc(C(F)(F)F)cn3)[C@H](C)c3ncccn3)cc12", "Recorded value": 6.84}
{"Compound": "Cc1nc(C)n2c1c(N)nc1ccc(C(=O)N(Cc3ccc(C(F)(F)F)cn3)[C@H](C)c3ncccn3)cc12", "Recorded value": 5.94}
{"Compound": "CN(C(=O)c1ccc2nc(N)c3cncn3c2c1)C1COc2cc(C(F)(F)F)ccc21 (centres unmarked) [Compound 15]", "Recorded value": 5.27}

Look at each compound and report its pIC50.
1. CN(C(=O)c1ccc2nc(N)c3cncn3c2c1)C1COc2cc(C(F)(F)F)ccc21 (centres unmarked) [Compound 17]
2. Cc1ncc2c(N)nc3ccc(C(=O)N(Cc4ccc(C(F)(F)F)cn4)[C@H](C)c4ncccn4)cc3n12
3. CN(C(=O)c1cc2c(cn1)nc(N)c1cncn12)[C@@H]1CC(F)(F)c2cc(C(F)(F)F)ccc21
4. CN(C(=O)c1cc2c(cn1)nc(N)c1cncn12)C1CC(F)(F)c2cc(C(F)(F)F)ccc21 (centres unmarked)
5. CN(C(=O)c1cc2c(cn1)nc(N)c1cncn12)C1COc2cc(C(F)(F)F)ccc21 (centres unmarked)

5.39
6.02
5.18
5.41
5.51

====

# Assay name: Hepatic metabolic stability (HMS) assay, rat hepatocytes
# Test parameters: rat, cryopreserved hepatocytes
Endpoint name: half-life at 1 μM (h)
Answers are plain numbers, in h.

Give a short answer stating reported half-life at 1 μM for CN(C(=O)c1ccc2nc(N)c3cncn3c2c1)[C@@H]1COc2cc(C(F)(F)F)ccc21 .
2.26

====

# Test system: HCT116 homozygous MTAP knockout cells
# Assay name: HCT116 cell proliferation assay (CTG), MTAP knockout cells
# Assay type: cell-based, human
# Test parameters: Homo sapiens, HCT-116, 6 days treatment, Cell Titer-Glo
pIC50: −log10 of the molar value.
Returns Met if the recorded pIC50 is greater than or equal to 7, and Not met otherwise.

Worked set:
{"Compound": "CN(C(=O)c1cc2c(cn1)nc(N)c1cncn12)C1COc2nc(C(F)(F)F)ccc21 (stereo not shown) [Compound 29]", "Label": "Not met"}
{"Compound": "C[C@H]1CC[C@H](c2ccc3c(c2)CCC(=O)N3)N(C(=O)c2ccc3nc(N)c4cncn4c3c2)C1 [Compound 4]", "Label": "Met"}

Then this compound:
Would you say CN(C(=O)c1cc2c(cn1)nc(N)c1cncn12)C1COc2cc(C(F)(F)F)ncc21 (stereo not shown) [Compound 33] shows pIC50 at minimum 7?
Not met
